System: K562
method description: NCI tumour cell line growth inhibition, 48 h
Calls of active or inactive are those of the source. No stated cut-off is given here; in the data, active = GI50 up to about 1.1 µM and inactive = higher.
Outcomes you can answer with include only these: active, inactive

{"compound": "COc1ccc2c(c1OC)OCC(CN(C)C)C2=O (stereo unspecified)", "assigned label": "inactive"}
{"compound": "O=C(Nn1c(-c2ccccc2)nc2ccccc2c1=O)c1ccccn1", "assigned label": "inactive"}
{"compound": "C/C1=C\\CC/C(C)=C/C=C(/C(C)C)CC/C(C(=O)O)=C/CC1", "assigned label": "inactive"}

Query: Per the records of this test, what outcome belongs to O=C(O)/C(O)=C\C(=O)c1ccc(Br)cc1 ?
Reply: inactive

Query: Same for Cc1cc(S(=O)(=O)/N=C(\NN)NCC(=O)NN)c(S)cc1Cl
Reply: inactive

Query: Same for O=c1c2c3c(sc2nc2n1NC=NN2)CCCC3
Reply: inactive

Query: Same for C/C=C1/CN2CCC3(O)c4ccccc4N4C=C(C(=O)OC)C1CC2C43O (stereo unspecified)
Reply: inactive

Query: Same for O=C(O)CCCC(=O)Nn1c(Cc2ccc(Cl)cc2)n[nH]c1=O
Reply: inactive

Query: Same for COc1ccc2nc(NCN3C(=O)c4ccccc4C3=O)sc2c1
Reply: inactive

Query: Same for O=C(N/N=C/c1ccc([N+](=O)[O-])cc1)Nc1ccc(C(=O)O)cc1
Reply: inactive

Query: Same for O=C(O)C(Cc1ccc(O)c([N+](=O)[O-])c1)N1C(=O)c2ccccc2C1=O (stereo unspecified)
Reply: inactive

Query: Same for CN(C)c1ccc(/N=N\c2cccc3ncccc23)cc1
Reply: inactive

Query: Same for O=[N+]([O-])c1ccc(NC(=S)N/N=C(\c2ccccc2)c2ccccn2)cc1
Reply: active

Query: Same for CC(=O)CCC#Cc1ccccc1C(=O)C(C)=[N+]=[N-]
Reply: inactive

Query: Same for COc1cc(C2C(Cl)C(=O)N2NC(=O)Cc2ccccc2)ccc1O (stereo unspecified)
Reply: inactive

Query: Same for O=C(NNC(=O)c1ccccc1O)c1ccccc1O
Reply: active

Query: Same for Cc1cc(C)n(C(=CC(=O)C(Cl)Cl)n2nc(C)cc2C)n1
Reply: inactive

Query: Same for COc1ccc(OC)c(C23CCCC(C2)N(C)CC3)c1 (stereo unspecified)
Reply: inactive

Query: Same for N#CC(c1ccccn1)c1nc2ccccc2[nH]1 (stereo unspecified)
Reply: inactive

Query: Same for O=C(O)CSc1ccc([N+](=O)[O-])cc1[N+](=O)[O-]
Reply: inactive

Query: Same for COC(=O)c1ccc(/C=C2\Cc3ccccc3C2=O)cc1
Reply: inactive

Query: Same for Cc1cccc(/C=N/NC(=S)Nc2ccccc2)n1
Reply: inactive

----------
Documented GI50 across a set of molecules
Tested on: UACC-257
method description: NCI tumour cell line growth inhibition, 48 h
Calls of active or inactive are those of the source. Rule as the data show it: active = GI50 up to about 1.1 µM and inactive = higher.

Worked cases, GI50 given:
{"molecule": "Cc1cc(NS(=O)(=O)c2ccc(Nc3c4ccccc4nc4ccc(C(=O)Nc5ccc(S(=O)(=O)N=C(N)N)cc5)cc34)cc2)no1", "GI50": "> 100 µM (inactive)"}
{"molecule": "CN1C/C(=C\\c2ccccc2)C2=NN(C(N)=S)[C@H](c3ccccc3)[C@@H]2C1", "GI50": "59.2 µM (inactive)"}
{"molecule": "O=C(O)CCCC(=O)Nn1c(Cc2ccc(Cl)cc2)n[nH]c1=O", "GI50": "> 100 µM (inactive)"}
{"molecule": "Cc1ccc(/C=C2\\CNC/C(=C\\c3ccc(C)cc3)C2=O)cc1", "GI50": "6.46 µM (inactive)"}
{"molecule": "COc1cc(OC)c(C(=O)c2cccs2)cc1N", "GI50": "> 100 µM (inactive)"}

Query: So what's the measured GI50 for this one? O=C1C2=C(CCCCC2)C2CCCCC12O (stereo unspecified)
Reply: > 100 µM (inactive)

----------
System: OVCAR-3
method description: NCI tumour cell line growth inhibition, 48 h
Active and inactive are the calls of the source. Rule as the data show it: active = GI50 up to about 1.1 µM and inactive = higher.
Documented GI50 across a set of molecules

Worked cases, GI50 given:
{"molecule": "Nc1nc(Cl)cc(NCC2(CO)CCC(CCc3ccccc3)C2)n1 (stereo not given)", "measured value": "7.45 µM (inactive)"}
{"molecule": "CC1(C)C=[N+]([O-])C(C)(C)N1O", "measured value": "> 10 µM (inactive)"}
{"molecule": "Nn1c(SCC(=O)NCc2ccccc2)nc2ccccc2c1=O", "measured value": "32.3 µM (inactive)"}
{"molecule": "COc1ccc2[nH]c3c4c(c5cc(C(C)(C)C)ccc5c3c2c1)C(=O)N(c1ccccc1)C4=O", "measured value": "> 100 µM (inactive)"}

Continue with the molecule presented below.
Query: Which GI50 is reported with OVCAR-3 for this entry: COc1cc(C(=O)C/C(CCC(=O)Nc2ccc(Cl)cc2Cl)=N/NC(=O)C(N)=O)ccc1O ?
Reply: > 100 µM (inactive)

----------
Test system: HOP-62
method description: NCI tumour cell line growth inhibition, 48 h
Active and inactive are the calls of the source. No stated cut-off is given here; in the data, active = GI50 up to about 1.1 µM and inactive = higher.
readout kind: GI50

Worked cases, GI50 given:
{"compound": "COC(=O)C1Cc2cccc(C)c2C1 (stereo unspecified)", "GI50": "> 100 µM (inactive)"}
{"compound": "C[C@H]1C[C@H]2[C@@H]3CCC4=CC(=O)C=C[C@]4(C)C3=CC[C@]2(C)[C@@]1(O)C(=O)CO", "GI50": "> 100 µM (inactive)"}
{"compound": "CC12CCC(=O)C[C@H]1CCC(OC=O)C2Br (stereo partly specified)", "GI50": "> 100 µM (inactive)"}

Continue with the compound presented below.
Query: So what's the measured GI50 for this one? Cc1ccc(NC(=O)CC/C(CC(=O)C(C)(C)C)=N\Nc2ccc([N+](=O)[O-])cc2[N+](=O)[O-])cc1C
Reply: 0.0522 µM (active)

----------
Documented GI50 across a set of compounds
Tested on: SNB-19
method description: NCI tumour cell line growth inhibition, 48 h
The source made the active and inactive calls. Rule as the data show it: active = GI50 up to about 1.1 µM and inactive = higher.

Worked cases, GI50 given:
{"compound": "CCCOCN1COCN/C1=N\\C#N", "measured value": "> 100 µM (inactive)"}
{"compound": "COC(=O)C(Cc1nc2ccc(Cl)cc2nc1O)/C(=N/O)C(=O)Nc1cccc(Cl)c1C (stereo not given)", "measured value": "> 100 µM (inactive)"}
{"compound": "C[C@H]1C[C@H]2[C@@H]3CCC4=CC(=O)C=C[C@]4(C)C3=CC[C@]2(C)[C@@]1(O)C(=O)CO", "measured value": "> 100 µM (inactive)"}
{"compound": "COC(c1ccccc1)C(c1ccccc1)N1CCOCC1 (stereo not given)", "measured value": "> 100 µM (inactive)"}
{"compound": "CCc1cccc(C)c1NC(=O)C1=C(C)NC(C)=C(C(=O)Nc2c(C)cccc2CC)C1c1ccc([N+](=O)[O-])cc1", "measured value": "53.5 µM (inactive)"}

Query: So what's the measured GI50 for this one? O=CC1OC(=O)c2cc(O)c(O)c(O)c2-c2c(cc(O)c(O)c2O)C(=O)OC1C(O)C(O)CO (stereo not given)
Reply: > 100 µM (inactive)

Query: Same for O=[N+]([O-])c1c2nc3n(c2cc2c1nc1n2CCC1)CCC3
Reply: > 100 µM (inactive)

----------
Documented GI50 across a set of compounds
Test system: HOP-62
method description: NCI tumour cell line growth inhibition, 48 h
The source made the active and inactive calls. Cut-off read from the data, not from the text of the source: active = GI50 up to about 1.1 µM and inactive = higher.

{"compound": "O=C(CCSC(CC(=O)c1ccc(Cl)cc1)c1ccc(Cl)cc1)Nc1ccc(Cl)cc1 (configuration not stated)", "GI50": "13.3 µM (inactive)"}
{"compound": "O=C1NC2CCCCC2N=C1CC(=O)c1ccc(Br)cc1 (configuration not stated)", "GI50": "31.8 µM (inactive)"}

Query: Which GI50 is reported with HOP-62 for this entry: O=C1Sc2ccccc2NC1=C(C(=O)c1ccccc1)C(=O)c1ccccc1 ?
Reply: 8.75 µM (inactive)

Query: Same for Cc1ccc(C(=O)/C=C2\Nc3ccccc3N=C2NC23CC4CC(CC(C4)C2)C3)cc1
Reply: > 10 µM (inactive)

Query: Same for O=c1c(C(c2cccc(C(c3c(O)oc4ccccc4c3=O)c3c(O)oc4ccccc4c3=O)c2)c2c(O)oc3ccccc3c2=O)c(O)oc2ccccc12
Reply: 30.3 µM (inactive)

Query: Same for Nc1ncc(Cc2ccc3c(c2)OCO3)c(N)n1
Reply: > 100 µM (inactive)

Query: Same for O=C1C(Br)=CC2(C=C1Br)CCNC1=C2C(=O)c2cccnc2C1=O
Reply: 8.93 µM (inactive)

Query: Same for O=c1ccn([C@@H]2C[C@@H]2CO)c(=O)[nH]1
Reply: > 100 µM (inactive)

Query: Same for O=[N+]([O-])/C(C(Cl)=C(Cl)Cl)=C(/Sc1ccccc1)N1CCCCC1
Reply: > 59.3 µM (inactive)

Query: Same for Cc1ccc(N/C(Sc2ccccc2)=C(/C(Cl)=C(Cl)Cl)[N+](=O)[O-])c(C)c1
Reply: 23.8 µM (inactive)

Query: Same for CC1=NN=C(N)N/C1=C/C(Sc1ccc(Cl)cc1)c1cccs1 (configuration not stated)
Reply: 12.5 µM (inactive)

Query: Same for O=c1[nH]c(=O)n([C@@H]2C[C@H](CO)[C@H](O)C2)cc1/C=C/Br
Reply: > 100 µM (inactive)

Query: Same for CCC[C@H]1C(=O)N=C(N)N1C(=O)OCc1ccccc1
Reply: > 100 µM (inactive)

Query: Same for COc1ccc(/C=N/N=C(\N)NO)c(Cl)c1O
Reply: 6.21 µM (inactive)

Query: Same for C[N+]12CCCCC1C(COc1cccc3cccnc13)CCC2 (configuration not stated)
Reply: 72.9 µM (inactive)

The measurements presented in this section are drawn from ChEMBL document CHEMBL1201862.
